- test_target: Cannabinoid receptor 2 (Homo sapiens, UniProt P34972)
- Sequence (P34972 whole entry): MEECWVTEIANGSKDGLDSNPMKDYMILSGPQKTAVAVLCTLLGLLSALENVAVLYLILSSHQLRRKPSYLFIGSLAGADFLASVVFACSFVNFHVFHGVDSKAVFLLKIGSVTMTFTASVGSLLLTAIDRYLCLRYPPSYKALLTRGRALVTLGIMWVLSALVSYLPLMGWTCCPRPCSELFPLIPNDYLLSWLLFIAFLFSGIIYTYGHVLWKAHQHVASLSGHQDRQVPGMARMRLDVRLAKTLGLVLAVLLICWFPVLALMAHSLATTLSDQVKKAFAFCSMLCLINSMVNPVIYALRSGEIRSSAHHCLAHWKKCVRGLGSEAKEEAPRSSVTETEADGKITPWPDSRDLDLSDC
- protocol_summary: Displacement of [3H]CP-55940 from human recombinant CB2 receptor expressed in CHO cell membranes incubated for 60 mins by scintillation counting
recorded_metric: pKi
Interpret pKi as the negative base-10 log of the concentration measured in mol/L.

The cases that follow already have their pKi on record.
pKi lookup needed for CCC1COc2c(N3CCCC3)ccc3c(=O)c(C(=O)NC45CC6CC(CC(C6)C4)C5)cn1c23 (racemic) , thanks.
8.09

Follow-up entry: CCC1COc2c(F)ccc3c(=O)c(C(=O)NC45CC6CC(CC(C6)C4)C5)cn1c23 (racemic)
8.13

Thanks! And CC(C)[C@H]1COc2cccc3c(=O)c(C(=O)NC45CC6CC(CC(C6)C4)C5)cn1c23 ?
7.79

---
May I ask what pKi has been recorded for CCC1COc2c(OC)ccc3c(=O)c(C(=O)NC45CC6CC(CC(C6)C4)C5)cn1c23 (racemic) ?
8.17

And the next one, CCC1COc2cccc3c(=O)c(C(=O)NC45CC6CC(CC(C6)C4)C5)cn1c23 (racemic) ?
8.11

Lookup O=C(NC12CC3CC(CC(C3)C1)C2)c1cn2c3c(cccc3c1=O)OCC2c1ccccc1 (racemic)
7.85

The values you see were collected from ChEMBL document CHEMBL2163236.
